Molecular target: Mitogen-activated protein kinase 14 (Mus musculus)
Sequence (P47811 whole entry, the tested form may be a part): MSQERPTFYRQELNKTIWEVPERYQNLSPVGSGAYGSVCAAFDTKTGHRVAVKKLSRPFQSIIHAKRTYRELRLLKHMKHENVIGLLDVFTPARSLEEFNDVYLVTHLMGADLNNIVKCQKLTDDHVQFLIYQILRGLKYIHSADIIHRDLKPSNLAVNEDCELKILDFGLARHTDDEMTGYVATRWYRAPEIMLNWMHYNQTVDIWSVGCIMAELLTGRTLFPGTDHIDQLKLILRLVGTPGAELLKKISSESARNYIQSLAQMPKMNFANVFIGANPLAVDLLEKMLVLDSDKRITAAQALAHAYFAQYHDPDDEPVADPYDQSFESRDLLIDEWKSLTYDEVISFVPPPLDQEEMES
Assay: Inhibition of kinase tracer 199 binding to mouse inactive p38alpha (2 to 349 residues) expressed in Escherichia coli by microscale thermophoresis assay
QUANTITY: Ki (nM)
Numeric answer only, unit nM assumed.

Example entries begin here.
# STRUCTURE STRING, OUTPUT UNIT, Ki
records = [
    ("Cc1ccccc1-n1nc(C(C)(C)C)cc1NC(=O)Nc1ccc(Cl)cc1", "nM", 730),
    ("Cc1cccc(-n2nc(C(C)(C)C)cc2NC(=O)Nc2ccc(Cl)cc2)c1", "nM", 20),
]

Form field Ki, entry Cc1ccc(-n2nc(C(C)(C)C)cc2NC(=O)Nc2ccc(Cl)cc2)cc1 : 30

Form field Ki, entry CC(C)(C)c1cc(NC(=O)Nc2ccc(Cl)cc2)n(-c2ccccc2)n1 : 100
